TARGET OF ASSAY: human nerve growth factor (beta-NGF) (human, UniProt P01138 122-241)
Sequence (P01138 122-241): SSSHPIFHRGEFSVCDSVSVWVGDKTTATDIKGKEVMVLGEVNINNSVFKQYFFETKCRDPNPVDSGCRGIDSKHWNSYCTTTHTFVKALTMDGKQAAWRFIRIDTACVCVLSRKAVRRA
METHOD NOTES: cell-based or functional assay
Could you please mark condition met for values of IC50, FLIPR calcium mobilisation below 0.4 nM and condition not met for values at or above it?

# input State whether 0.4 nM exceeds IC50, FLIPR calcium mobilisation recorded for 1175H8 human IgG4 (antibody, V domains shown) VH: EVQLVQSGAEVKKPGSSVKVSCKASGGTFSTYGISWVRQAPGQRLEWIGGIIPIFDTGNSAQSFQGRVTITADESTSTAYMEVSSLRSDDTAVYYCASSSRIYDATTGLTPYYDMDVWGQGTMVTVSS VL: QAVLTQPSSVSTPPGQKVTISCSGSSSNIGNNYVSWYQQLPGTAPKLLIYDNNKRPSGIPDRFSGSKSGTSATLGITGLRTGDEADYYCGTWDSSLSAWVFGGGTKLTVL .
# output condition met

# input State whether 0.4 nM exceeds IC50, FLIPR calcium mobilisation recorded for 1134D9 human IgG4 (antibody, V domains shown) VH: EVQLVQSGAEVKKPGSSVKVSCKASGGTFSTYGISWVRQAPGQGLEWIGGIIPIFDTGNSAQSFQGRVAITADESTSTAYMEVSSLRSDDTAVYYCASSSRIYDLNPSLTAYYDMDVWGQGTMVTVSS VL: QAVLTQPSSVSTPPGQKVTISCSGSSSNIGNNYVSWYQQLPGTAPKLLIYDNNKRPSGIPDRFSGSKSGTSATLGITGLQTGDEADYYCGTWDSGLSAWVFGGGTKLTVL .
# output condition met

# input State whether 0.4 nM exceeds IC50, FLIPR calcium mobilisation recorded for 1145D1 human IgG4 (antibody, V domains shown) VH: EVQLVQSGAEVKKPGSSVKVSCKASGGTFSTYGISWVRQAPGQGLEWIGGIIPIFDTSNSAQSFQGRVTITADESTSTAYMEVSSLRSDDTAVYYCASSSRIYDFRTLYSTYYDMDVWGQGTMVTVSS VL: QAVLTQPSSVSTPPGQKVTISCSGSSSNIGNNYVSWYQQLPGTAPKLLIYDNNKRPSGISDRFSGSKSGTSATLGIAGLQTGDEADYYCGTWDSSLSAWVFGGGTKLTVL .
# output condition met

# input State whether 0.4 nM exceeds IC50, FLIPR calcium mobilisation recorded for 1131D7 human IgG4 (antibody, V domains shown) VH: EVQLVQSGAEVKKPGSSVKVSCKASGGTFSTYGISWVRQAPGQGLEWIGGIIPIFDTGNSAQSFQGRVTITADESTSTAYMEVSSLRSDDTAVYYCASSSRIYDFNSSLIAYYDMDVWGQGTMVTVSS VL: QAVLTQPSSVSTPPGQKVTISCSGSSSNIGNNYVSWYQQLPGTAPKLLIYDNNKRPSGIPDRFSGSKSGTSATLGITGLQTGDETDYYCGTWDSSLSAWVFSGGTKLTVL .
# output condition not met

# input State whether 0.4 nM exceeds IC50, FLIPR calcium mobilisation recorded for G1165D4 human IgG4 (antibody, V domains shown) VH: QVQLVQSGAEVKKPGSSVKVSCKASGGTFSTYGISWVRQAPGQGLEWMGGIIPIFDTGNSAQSFQGRVTITADESTSTAYMELSSLRSEDTAVYYCARSSRIYDLNPSLTAYYDMDVWGQGTMVTVSS VL: QSVLTQPPSVSAAPGQKVTISCSGSSSNIENNYVSWYQQLPGTAPKLLIYDNNKRPSGIPDRFSGSKSGTSATLGITGLQTGDEADYYCGTWDSSLSAWVFGGGTKLTV .
# output condition met
